Provenance of the data: paper PMC4700511

Tested on: E. coli DH10B pBCSK(−) producing VIM-2 (228R)
Test: MIC by agar dilution, E. coli DH10B pBCSK
Type: cell-based
Settings: Escherichia coli, MHA
endpoint_label: MIC (µg/mL)
Provide only the numeric value, understood in µg/mL.

molecule: CO/N=C(\C(=O)N[C@@H]1C(=O)N2C(C(=O)O)=C(CSc3nc(=O)c(=O)[nH]n3C)CS[C@H]12)c1csc(N)n1 [ceftriaxone]
value_units: µg/mL
MIC: 8

Any idea what its MIC is? The molecule is CC(C)(O/N=C(\C(=O)N[C@@H]1C(=O)N2C(C(=O)[O-])=C(C[n+]3ccccc3)CS[C@H]12)c1csc(N)n1)C(=O)O [ceftazidime]
16
